Answer each item with its documented composite z-score.
- protocol.text: compound binding in COS7 lysate, probe aLAP1, primary screen, cell lysate, small-molecule microarray (AID 1124);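 also: lysate comes from COS7 cells expressing LAP1 and is applied at 0.3 µg/mL; score merges spot fluorescence near 667 nm with signal-to-noise over triplicate slides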
- condition.description: probe aLAP1, fluorescence, higher = more signal
Numbers only.

| compound | composite z-score |
| --- | --- |
| COc1ccc(NN2C(C(O)c3cc(OC)c(OC)c(OC)c3)C=CC3C(=O)N(C4CCCCC4)C(=O)C32)cc1 (centres undefined) | 0.754 |
| CC(=O)NCCCC[C@@H]1NC(=O)[C@@H]2C[C@H](C(=O)NCCCCCNC(=O)CS)[C@H](c3ccc(O)cc3)N2C1=O | -0.377 |
| CCOC(=O)C[C@H]1[C@H](OC(=O)Cc2ccc3c(c2)OCO3)[C@@H](NC(=O)CC(C)C)c2cc(OCCCO)ccc2N1C(=O)c1ccccc1 | -0.0777 |

Could you now look at the following compound, please?
Lookup: Provide composite z-score value for the following compound: `COC(=O)[C@@]1(Cc2ccccc2N=[N+]=[N-])N=C(c2ccc(OCCCO)cc2)O[C@H]1c1ccccc1CN=[N+]=[N-]`
Found: -0.113

###

- target.system: Streptavidin (Streptomyces avidinii) (UniProt P22629)
- Sequence (P22629 whole entry, looked up): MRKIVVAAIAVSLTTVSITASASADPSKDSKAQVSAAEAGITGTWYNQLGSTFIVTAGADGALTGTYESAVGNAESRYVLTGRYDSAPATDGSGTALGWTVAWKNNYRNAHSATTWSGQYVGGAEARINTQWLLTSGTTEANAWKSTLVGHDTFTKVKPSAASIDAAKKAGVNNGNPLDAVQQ
- protocol.text: streptavidin binders on small-molecule microarray, primary screen, artefact control for SMM compound annotation, biophysical, 635/667 nm fluorescence (AID 1147);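 also: signal reflects streptavidin binding to arrayed compounds as a control protein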
- condition.description: streptavidin binding, higher = more signal
Class key for composite z-score values: band 1 (below 0.2), band 2 (0.2 to below 0.5), band 3 (0.5 or more)

Lookup: Input `COC(=O)[C@@]1(Cc2ccc(OC)cc2)[C@H]2c3cc(C(=O)N(C)C)n(Cc4ccc(C)c(F)c4F)c3C[C@H]2CN1C(=O)c1ccccc1` ; output its category
Found: band 3

Lookup: Hi there! Could you help me figure out the category for `CO[C@@H]1COC(=O)CC=C[C@@H](C)[C@H](OC)COC(=O)CC=C[C@H]1C` please?
Found: band 1

###

- protocol.text: binders of probe aFSTL3 on microarray, primary screen, stem cell growth factor project, biochemical, small-molecule microarray, fluorescence 635/667 (AID 1064);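 also: measures binding of the biotinylated anti-FSTL3 antibody to printed compounds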
- condition.description: higher = more signal
Mark condition not met for composite z-score values under -0.07, and condition met for everything at or above.

| compound | class.assignment |
| --- | --- |
| CC(C)C[C@@H]1NC(=O)[C@H](CC(C)C)NC(=O)[C@@]23C(=O)N[C@@H](Cc4ccccc4)C2[C@H](C)[C@@]2(C)O[C@H]2C3/C=C/CC/C=C/CNC1=O (stereo partly drawn) | condition not met |

Lookup: Hi team, for `CC(C)[Si]1(C(C)C)OCc2cc(C3CC3)nc(-c3ccccc3)c21` , is the recorded composite z-score at or above -0.07?
Found: condition met

Lookup: Determine whether this compound has composite z-score no lower than -0.07: `CO[C@H]1COC(=O)[C@@H](Cc2ccccc2)NC(=O)[C@@H](C)COC(=O)CC=C[C@@H]1C`
Found: condition not met

Lookup: Does composite z-score meet or surpass -0.07 for `CC(=O)NCCCC[C@@H]1NC(=O)[C@@H]2C[C@H](C(=O)NCc3ccc(F)cc3)[C@H](c3cccc(OCCO)c3)N2C1=O` ?
Found: condition met

Lookup: Does the compound `CC(C)(C)OC(=O)CC[C@]1(C(=O)N2CCCCC2)N=C(c2ccc(OCCCO)cc2)O[C@H]1c1ccccc1` have recorded composite z-score that is -0.07 or more?
Found: condition not met

Lookup: Can `CCc1cccc(NC(=O)O[C@H]2[C@H](OC(=O)Nc3ccccc3)[C@@H](OC(=O)Nc3ccccc3)[C@@H](OC)O[C@@H]2CO)c1` be said to have composite z-score at or above -0.07?
Found: condition met

Lookup: Check the entry `C=C(CCCC)C(=O)CC[C@@H](OC(C)=O)c1ccccc1OCCO` : does composite z-score equal or exceed -0.07?
Found: condition met

Lookup: # check: composite z-score of `Cc1ccc([C@@H]2CC=C(C(=O)O)[C@H](c3ccccc3)N2S(=O)(=O)c2ccc(C)cc2)cc1` is greater than or equal to -0.07
Found: condition met

Lookup: For this compound, is measured composite z-score -0.07 or higher? `CO[C@H]1COC(=O)[C@H](C)COC(=O)[C@H](Cc2ccccc2)NC(=O)CC=C[C@H]1C`
Found: condition met

Lookup: Hi team, for `COc1ccc(C(=O)Nc2ccc(CN3C(=O)[C@]4(O[C@H](CCn5cc(CCO)nn5)[C@@H]([Si](C)(C)c5ccc(OC)cc5)[C@@H]4C)c4ccccc43)cc2)cc1` , is the recorded composite z-score at or above -0.07?
Found: condition met

Lookup: Entry `CC(C)=C1C(=O)C(c2ccccc2)=C2CN3C(=O)N(CCc4ccccc4)C(=O)[C@]3(Cc3ccccc3)[C@H]21` : is its composite z-score no less than -0.07?
Found: condition met

Lookup: Is the recorded value of composite z-score equal to or greater than -0.07 for this compound? `C[C@@H]1CC[C@H]2C(=O)N3CCC[C@H]3C(=O)N2[C@H]1c1ccc(Br)cc1`
Found: condition not met

Lookup: hey, is composite z-score for this one >= -0.07? `C/C(=N\O)C(=O)NCCCCCNC(=O)OCc1ccccc1`
Found: condition not met
